- SYSTEM TESTED: HLA-A*69:01
- TEST METHOD NOTES: IEDB peptide-MHC binding, purified MHC/direct/fluorescence; filed as Kd, often an IC50 or EC50 that approximates it; bounds were set here for any values at or beyond the usual limits of such assays
- TEST SETTINGS: source organism: Pasteurella multocida
METRIC NAME: Kd (nM)
Output spec: scalar in nM, unitless text.

QUERY: Quick one: Kd for LMAEDLANV ?
RESULT: 16.8

* * *

- SYSTEM TESTED: HLA-B*51:01
- TEST METHOD NOTES: IEDB peptide-MHC binding, purified MHC/direct/fluorescence; filed as Kd, often an IC50 or EC50 that approximates it; bounds were set here for any values at or beyond the usual limits of such assays
- TEST SETTINGS: source organism: Vibrio parahaemolyticus AQ3810
METRIC NAME: pKd
In textbook form, pKd equals minus log to base ten of the concentration in mol/L.

QUERY: pKd for MAYGFFNNI ?
RESULT: 7.52

* * *

Known pKd of a selection of sequences
- SYSTEM TESTED: HLA-A*30:02
- TEST METHOD NOTES: IEDB peptide-MHC binding, purified MHC/competitive/radioactivity; filed as Kd, often an IC50 or EC50 that approximates it; bounds were set here for any values at or beyond the usual limits of such assays
- TEST SETTINGS: source organism: Dengue virus 4 Philippines/H241/1956
Schema: pKd number; meaning minus log10 of the concentration expressed in molar units.

{"CHAIN SEQUENCE": "VDYMPVMKRY", "pKd": 7.12}
{"CHAIN SEQUENCE": "AGGLLLAAY", "pKd": 7.22}

Let's switch to this sequence now.
QUERY: What measured pKd goes with VLMMLVAPSY ?
RESULT: 7.58

* * *

- SYSTEM TESTED: HLA-A*30:02
- TEST METHOD NOTES: IEDB peptide-MHC binding, purified MHC/competitive/radioactivity; filed as Kd, often an IC50 or EC50 that approximates it; bounds were set here for any values at or beyond the usual limits of such assays
- TEST SETTINGS: source organism: Lymphocytic choriomeningitis virus (strain Armstrong)
Some sequences, each annotated with its measured pKd.
pKd field: float, defined as -log10 of concentration (mol/L).

{"CHAIN SEQUENCE": "RYQVVECKEV", "SYSTEM TESTED": "HLA-A*30:02", "pKd": 6.80}

# input for lookup
QUERY: State the recorded pKd for this entry: DLMGVPYCNY
RESULT: 6.26

* * *

- SYSTEM TESTED: HLA-A*32:01
- TEST METHOD NOTES: IEDB peptide-MHC binding, purified MHC/competitive/radioactivity; filed as Kd, often an IC50 or EC50 that approximates it; bounds were set here for any values at or beyond the usual limits of such assays
- TEST SETTINGS: source organism: Mammarenavirus lassaense
METRIC NAME: Kd (µM)
# value in µM; strip the unit string

QUERY: What is its Kd for HLA-A*32:01? Entry: FYSQESPQSY
RESULT: 9.4

* * *

- SYSTEM TESTED: HLA-B*51:01
- TEST METHOD NOTES: IEDB peptide-MHC binding, purified MHC/competitive/radioactivity; filed as Kd, often an IC50 or EC50 that approximates it; bounds were set here for any values at or beyond the usual limits of such assays
- TEST SETTINGS: source organism: Dengue virus 2 16681-PDK53
METRIC NAME: Kd

QUERY: Could you share which Kd value was measured for QPENLEYTIV ?
RESULT: ≥ 69.6 µM

* * *

Measured pKd, listed per entry.
- SYSTEM TESTED: HLA-B*27:05
- TEST METHOD NOTES: IEDB peptide-MHC binding, purified MHC/direct/fluorescence; filed as Kd, often an IC50 or EC50 that approximates it; bounds were set here for any values at or beyond the usual limits of such assays
- TEST SETTINGS: source organism: Escherichia coli O157:H7
pKd: −log10 of the molar value.

Reference set (2 entries):
{"CHAIN SEQUENCE": "VVPLYDTPL", "pKd": "≤ 4.70"}
{"CHAIN SEQUENCE": "FIVEHINAM", "pKd": "≤ 4.70"}

Proceeding to the next sequence to report its pKd.
QUERY: # query: pKd of entry VSRDFDDVY
RESULT: ≤ 4.70

* * *

Measured Kd by item
- SYSTEM TESTED: HLA-B*44:03
- TEST METHOD NOTES: IEDB peptide-MHC binding, purified MHC/competitive/radioactivity; filed as Kd, often an IC50 or EC50 that approximates it; bounds were set here for any values at or beyond the usual limits of such assays
- TEST SETTINGS: source organism: Dengue virus 4 Philippines/H241/1956
I only need the number, in µM, no unit after it.

Solved cases below.
{"CHAIN SEQUENCE": "GEIGAVTLDF", "MEASURED VALUE": 0.0216}
{"CHAIN SEQUENCE": "CEPRSGIDF", "MEASURED VALUE": 0.901}
{"CHAIN SEQUENCE": "AGISYKDREW", "MEASURED VALUE": 4.17}

QUERY: Report Kd for KEVALLRTY tested on HLA-B*44:03.
RESULT: 0.0636

QUERY: Try the sequence LEKAANVQW
RESULT: 0.392

* * *

- SYSTEM TESTED: HLA-A*03:01
- TEST METHOD NOTES: IEDB peptide-MHC binding, purified MHC/competitive/fluorescence; filed as Kd, often an IC50 or EC50 that approximates it; bounds were set here for any values at or beyond the usual limits of such assays
- TEST SETTINGS: source organism: Human immunodeficiency virus 1
METRIC NAME: Kd

QUERY: Entry IATLYCVHQK : reported Kd = ?
RESULT: ≥ 20 µM

* * *

- SYSTEM TESTED: HLA-B*58:01
- TEST METHOD NOTES: IEDB peptide-MHC binding, purified MHC/competitive/fluorescence; filed as Kd, often an IC50 or EC50 that approximates it; bounds were set here for any values at or beyond the usual limits of such assays
- TEST SETTINGS: source organism: Yersinia pestis Nepal516
METRIC NAME: Kd
Give the figure together with its unit, number first.

QUERY: Which measured Kd value corresponds to YSSPHLLRY ?
RESULT: 4.5 nM

* * *

- SYSTEM TESTED: HLA-B*18:01
- TEST METHOD NOTES: IEDB peptide-MHC binding, purified MHC/competitive/fluorescence; bounds were set here for any values at or beyond the usual limits of such assays
- TEST SETTINGS: source organism: Ateles geoffroyi
pIC50: −log10 of the molar value.
METRIC NAME: pIC50

QUERY: pIC50 for LPADPASVL ?
RESULT: ≤ 4.70

* * *

Reported values of Kd for individual entries
- SYSTEM TESTED: HLA-A*03:01
- TEST METHOD NOTES: IEDB peptide-MHC binding, purified MHC/competitive/radioactivity; filed as Kd, often an IC50 or EC50 that approximates it; bounds were set here for any values at or beyond the usual limits of such assays
- TEST SETTINGS: source organism: Vaccinia virus WR
Give a bare numeral; the unit µM is implied.

Use these answered entries as a reference point.
{"CHAIN SEQUENCE": "SSVQLSNNK", "Kd (µM)": 2.2}
{"CHAIN SEQUENCE": "RVYEALYYV", "Kd (µM)": 0.717}
{"CHAIN SEQUENCE": "NLLVQYGAK", "Kd (µM)": 0.274}

QUERY: Query the reported Kd for HLA-A*03:01; item: LTPIFSDLLK
RESULT: 0.0241

QUERY: // next record GTGLWTHDK
RESULT: 0.0247

QUERY: And then AQYKCVTIK , what is it?
RESULT: 0.0157

QUERY: Further, for RSKMLKRGSR ?
RESULT: 0.279

QUERY: Moving on to the next sequence: GIEFADNDR
RESULT: 2.42

QUERY: Now try YVTLNASQY .
RESULT: 4.77

* * *

- SYSTEM TESTED: HLA-A*02:19
- TEST METHOD NOTES: IEDB peptide-MHC binding, purified MHC/direct/fluorescence; filed as Kd, often an IC50 or EC50 that approximates it; bounds were set here for any values at or beyond the usual limits of such assays
- TEST SETTINGS: source organism: Vibrio cholerae V52
METRIC NAME: Kd

QUERY: Fill in the blank: the reported Kd of MGMEQTMSV is ____.
RESULT: ≥ 20 µM

* * *

- SYSTEM TESTED: HLA-A*01:01
- TEST METHOD NOTES: IEDB peptide-MHC binding, purified MHC/direct/fluorescence; filed as Kd, often an IC50 or EC50 that approximates it; bounds were set here for any values at or beyond the usual limits of such assays
- TEST SETTINGS: source organism: H9N2 subtype Influenza A virus (A/swine/Korea/S81/2004(H9N2))
METRIC NAME: Kd

QUERY: Returns the measured Kd for the input sequence. Input: KAVRGDLNF
RESULT: ≥ 20 µM
